Reported pIC50 values for a set of compounds
- Test system: Phosphorylation of ERK1/2 in A549 cells
- protocol_notes: Phospho-ERK1/2 MSD Assay (A549)
- Assay type: cell-based
- condition_notes: Homo sapiens, A549, 4 h, read-out: pERK IC50 (4 h, A549), 4 h compound treatment
pIC50: −log10 of the molar value.

Item under review: C=CC(=O)N1CC(NC(=O)Cn2c(C)c(C(=O)N3CCN(c4ccc(C)cn4)CC3)c3cc(Br)ccc32)C1 . Reported pIC50? < 4.00

# pIC50 lookup, item C=CC(=O)N1CC(N(CC)C(=O)Cn2c(C)c(C(=O)N3CCc4ccccc4C3C)c3cc(Br)cc(C)c32)C1 (centres unmarked) 4.20

Fill in: pIC50 of C=CC(=O)N1CC(NC(=O)Cn2cc(C(=O)N3CCc4ccc(C)cc4C3)c3cc(Br)ccc32)C1 is ___ < 4.00

Given the entry C=CC(=O)N1CC(N(C)C(=O)Cn2cc(C(=O)N3CCc4c(cccc4OC)C3)c3cc(Br)ccc32)C1 , report its measured pIC50. < 4.00

What pIC50 value was documented for this compound, C=CC(=O)N1CC(NC(=O)Cn2cc(C(=O)N3CCc4c(ccc(Cl)c4Cl)C3)c3cc(Br)ccc32)C1 ? 4.52

---
Need pIC50, item C=CC(=O)N1CC(N2CCC(n3c(C)c(C(=O)N4CCc5c(cccc5OC)C4)c4cc(Br)ccc43)C2=O)C1 (centres unmarked) < 4.48

###

- Tested on: Phosphorylation of ERK1/2 in A549 cells
- protocol_notes: Phospho-ERK1/2 MSD Assay (A549)
- Assay type: cell-based
- condition_notes: Homo sapiens, read-out: pERK IC50 (4 h), 4 h compound treatment
Parameter: IC50. Scope: all listed entries.

For C=CC(=O)N1CC(NC(=O)Cn2cc(-c3ccccc3-c3ccccc3)c3cc(Cl)ccc32)C1 , what is its reported IC50? > 100 µM

If you can, please state the reported IC50 value of C=CC(=O)N1CC(NC(=O)Cn2cc(-c3ccccc3OC)c3cc(Br)ccc32)C1 . 14.6 µM

Dear colleague, I am looking for the recorded IC50 of the following compound: C=CC(=O)N1CC(NC(=O)Cn2cc(I)c3cc(Br)cc(C)c32)C1 > 100 µM

Need IC50 of C=CC(=O)N1CC(NC(=O)Cn2cc(-c3ccccc3C)c3cc(Cl)ccc32)C1 , thanks. > 100 µM

Further cases:
So what does the record say about IC50 for C=CC(=O)N1CC(NC(=O)Cn2cc(I)c3cc(Br)cc(CC)c32)C1 ? > 100 µM

Report IC50 for C=CC(=O)N1CC(NC(=O)Cn2cc(C3CC3)c3cc(Br)ccc32)C1 please. > 100 µM

Consider the compound C=CC(=O)N1CC(NC(=O)Cn2c3c(c4cc(Br)ccc42)CCCCC3)C1 and give its measured IC50. > 100 µM

Entry under review: C=CC(=O)N1CC(NC(=O)Cn2c(C)c(-c3ccccc3N(C)C)c3cc(Cl)ccc32)C1 . Reported IC50? 13.2 µM

###

Reported pIC50 values for a set of compounds
- tested_system: GDP-bound KRAS protein (aa 1-169), containing both G12C and C118A amino acid substitutions (Homo sapiens (Human), UniProt P01116, C118A/G12C)
- Sequence (P01116 other isoform, or with tags, fused parts or gaps G12C/C118A): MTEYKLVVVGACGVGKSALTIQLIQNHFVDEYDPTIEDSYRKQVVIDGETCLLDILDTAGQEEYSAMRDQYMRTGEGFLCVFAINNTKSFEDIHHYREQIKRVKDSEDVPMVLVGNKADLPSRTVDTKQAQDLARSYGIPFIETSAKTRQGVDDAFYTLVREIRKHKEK
- protocol_notes: Coupled Nucleotide Exchange Assay
- Format: biochemical
- condition_notes: read-out: Coupled Exchange IC50 (20 h); 20 h compound pre-incubation
In textbook form, pIC50 equals minus log to base ten of the concentration in mol/L.

Consider the worked cases shown below.
GET /values?readout=pIC50&item= C=CC(=O)N1CC(NC(=O)Cn2cc(CN3CCc4ccccc4C3)c3cc(Br)ccc32)C1 [Example 145] 5.95

Entry C=CC(=O)N1CC(NC(=O)Cn2c(C)c(C(=O)N3CCc4c(cccc4OC)C3)c3cc(Br)cc(C)c32)C1 [Example 2-1] : reported pIC50 = ? 6.96

Which pIC50 is reported for this compound? C=CC(=O)N1CC(NC(=O)Cn2cc(CC(=O)NCc3ccccc3)c3cc(Br)ccc32)C1 [Example 226] 5.78

Query: pIC50; subject: C=CC(=O)N1CC(NC(=O)Cn2cc(-c3cccc(C#N)c3)c3cc(Br)ccc32)C1 [Example 216] 5.52

Field request: pIC50 | item: C=CC(=O)N1CC(N(C)C(=O)Cn2c3ccccc3c3cc(Br)ccc32)C1 [Example 261] 5.66

Okay, next one:
So what does the record say about pIC50 for C=CC(=O)N1CC(NC(=O)Cn2c(C(=O)OC)cc3c(Cl)c(Cl)ccc32)C1 [Example 220] ? 5.72

###

- tested_system: GDP-bound KRAS protein (aa 1-169), containing both G12C and C118A amino acid substitutions (Homo sapiens (Human), UniProt P01116, C118A/G12C)
- protocol_notes: Coupled Nucleotide Exchange Assay
- Type: biochemical
- condition_notes: read-out: Coupled Exchange IC50 (2 h); 2 h compound pre-incubation
- Experimental: For compounds in Table 9, the following assay conditions were employed: Coupled Nucleotide Exchange Assay: The assay plates were then read on a PerkinElmer EnVision Multilabel Reader, using AlphaScreen® technology, and data were analyzed using a 4-parameter logistic model to calculate IC50 values.
readout_label: IC50 (nM)
# output: bare number, implied unit nM

Solved cases below.
GET /values?readout=IC50&item= C=CC(=O)N1CC(NC(=O)Cn2c(C(=O)NCc3ccccc3CN(C)C)cc3cc(Br)ccc32)C1 3260

If you can, please state the reported IC50 value of C=CC(=O)N1CC(NC(=O)Cn2cc(C)c3cc(Br)ccc32)C1 . 30100

Continuing:
Quick one: IC50 for C=CC(=O)N1CC(NC(=O)Cn2cc(C(=O)NCC(CC)Oc3cccc(Cl)c3)c3cc(Br)ccc32)C1 (stereo not shown) ? 1800

Dear colleague, I am looking for the recorded IC50 of the following compound: C=CC(=O)N1CC(NC(=O)Cn2c(C)c(C(=O)N3CCc4c(O)cccc4C3)c3cc(Br)ccc32)C1 280

###

- tested_system: GDP-bound KRAS protein (aa 1-169), containing both G12C and C118A amino acid substitutions (Homo sapiens (Human), UniProt P01116, C118A/G12C)
- protocol_notes: Coupled Nucleotide Exchange Assay
- Type: biochemical
- condition_notes: third Coupled Exchange column; compound pre-incubation probably 20 hours (rest of head not shown; b435 lists 5 min, 2 hours or 20 hours); read-out: Coupled Exchange IC50
readout_label: IC50

If you can, please state the reported IC50 value of C=CC(=O)N1CC(NC(=O)Cn2c(C)c(-c3ncccc3Cl)c3cc(Cl)ccc32)C1 . 1.64 µM

So what does the record say about IC50 for C=CC(=O)N1CC(N(C)C(=O)Cn2ccc3cc(Br)c(C)cc32)C1 ? 6.78 µM

# get_value(readout='IC50', item= C=CC(=O)N1C[C@@H](NC(=O)Cn2ccc3cc(Br)ccc32)[C@H]1C ) > 250 µM

Quick check: IC50 of C=CC(=O)N1CC(CO)(NC(=O)Cn2ccc3cc(Br)ccc32)C1 ? 92.6 µM

Consider the molecule shown here: C=CC(=O)N1CC(NC(=O)Cn2c(C)cc3cc(Br)ccc32)C1 What is its recorded IC50? 1.47 µM

What measured IC50 goes with C=CC(=O)N1CC(N(C)C(=O)Cn2ccc3cc(Cl)ccc32)C1 ? 3.2 µM

Returns the measured IC50 for the input molecule. Input: C=CC(=O)N1CC(n2nncc2Cn2ccc3cc(Br)ccc32)C1 7.66 µM

What does the record list as IC50 for C=CC(=O)N1CC(N(C)C(=O)Cn2ccc3cc(Br)cc(C)c32)C1 ? 3.32 µM

***
Any idea what IC50 was measured for C=CC(=O)N1CC(NC(=O)Cn2ccc3c(C)c(Br)ccc32)C1 ? 3.21 µM

###

- tested_system: GDP-bound KRAS protein (aa 1-169), containing both G12C and C118A amino acid substitutions (Homo sapiens (Human), UniProt P01116, C118A/G12C)
- protocol_notes: Coupled Nucleotide Exchange Assay
- Type: biochemical
- condition_notes: read-out: Coupled Exchange IC50 (20 h); 20 h compound pre-incubation
Listing of entries alongside the reported pIC50.
In plain terms, pIC50 is the concentration in mol/L turned into minus its base-10 logarithm.

Need pIC50 of C=CC(=O)N1CC(NC(=O)Cn2c(C)c(-c3ccccc3C)c3cc(Cl)ccc32)C1 [Example 121] , thanks. 6.38

# query: pIC50 of entry C=CC(=O)N1CC(NC(=O)Cn2ccc3cc(Cl)cc(Cl)c32)C1 [Example 165] 5.58

So what's the measured pIC50 for this one? C=CC(=O)N1CC(NC(=O)Cn2cc(-c3cccnc3)c3cc(-c4cccnc4)ccc32)C1 [Example 207] 4.74

Next:
Returns the measured pIC50 for the input molecule. Input: C=CC(=O)N1CC(NC(=O)Cn2c(C=O)cc3cc(Br)ccc32)C1 [Example 185] 4.80

Quick check: pIC50 of C=CC(=O)N1CC(NC(=O)Cn2c(C)c(C(=O)N3CCc4c(C)cccc4C3)c3cc(Br)ccc32)C1 [Example 25] ? 7.05

Which pIC50 value belongs to C=CC(=O)N1CC(NC(=O)Cn2c(C)c(C(=O)N3CCc4c(ccnc4OC)C3)c3cc(Br)ccc32)C1 [Example 12] ? 6.77

What value of measured pIC50 is listed for C=CC(=O)N1CC(NC(=O)Cn2cc(-c3cccnc3)c3cc(Br)ccc32)C1 [Example 206] ? 5.55

Value lookup for pIC50; key = C=CC(=O)N1CC(NC(=O)Cn2cc(-c3ccc(F)cc3F)c3cc(Br)ccc32)C1 [Example 137] 5.95
